Target: DGKα (Homo sapiens (Human), UniProt P23743)
Sequence (P23743 other isoform, or with tags, fused parts or gaps): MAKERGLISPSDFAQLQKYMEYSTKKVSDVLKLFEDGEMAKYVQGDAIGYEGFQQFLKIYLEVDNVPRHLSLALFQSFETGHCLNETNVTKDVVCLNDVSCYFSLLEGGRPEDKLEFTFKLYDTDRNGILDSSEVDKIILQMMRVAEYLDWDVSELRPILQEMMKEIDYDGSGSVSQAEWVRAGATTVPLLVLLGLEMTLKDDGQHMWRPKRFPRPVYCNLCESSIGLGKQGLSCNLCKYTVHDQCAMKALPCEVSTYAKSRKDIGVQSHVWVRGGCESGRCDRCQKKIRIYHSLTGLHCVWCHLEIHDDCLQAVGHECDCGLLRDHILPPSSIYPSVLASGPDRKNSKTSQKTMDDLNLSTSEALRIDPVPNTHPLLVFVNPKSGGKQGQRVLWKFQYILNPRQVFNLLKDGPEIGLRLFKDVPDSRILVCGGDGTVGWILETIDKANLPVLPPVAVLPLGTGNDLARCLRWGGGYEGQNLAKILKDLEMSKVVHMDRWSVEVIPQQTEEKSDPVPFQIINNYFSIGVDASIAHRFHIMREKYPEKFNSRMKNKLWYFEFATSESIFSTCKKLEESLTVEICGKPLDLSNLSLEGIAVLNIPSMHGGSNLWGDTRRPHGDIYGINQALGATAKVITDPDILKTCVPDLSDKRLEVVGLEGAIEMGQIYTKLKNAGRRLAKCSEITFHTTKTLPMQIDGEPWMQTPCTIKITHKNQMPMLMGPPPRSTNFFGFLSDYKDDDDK
Test: Human DGKα kinase activity inhibition assay (ADP-Glo)
Details: recombinant full-length human DGKα, 55 μM ATP, 7 μM 1,2-dioleoyl-sn-glycerol, read-out: IC50 values of examples in in vitro human DGKa kinase activity inhibition assays
Quick list: pIC50 per entry.
Keep it numeric: pIC50 is minus log10 of the concentration in mol/L.

Worked set:
* Cn1c(=O)c(C#N)c(N2CCC(c3ccc4c(c3)OC(C)(C)O4)CC2)c2ccccc21 | 8.92
* Cc1ccc2oc(C3CCN(c4c(C#N)c(=O)n(C)c5c(Br)cccc45)CC3)nc2c1 | 6.40
* Cn1c(=O)c(C#N)c(N2CCC(c3nc4cc(OCC5CCCO5)ccc4o3)CC2)c2ccccc21 (centres unmarked) | 8.05
* Cn1c(=O)c(C(N)=O)c(N2CCC(O)(c3cc4ccccc4s3)CC2)c2ccccc21 | 7.39
* Cn1c(=O)c(C#N)c(N2CCC(c3nc4ccccc4o3)CC2)c2ccc(Br)cc21 | 8.70

Task: Quick one: pIC50 for Cn1c(=O)c(C#N)c(N2CCC(C)(c3nc4ccccc4o3)CC2)c2ccc(F)cc21 ?
Result: 8.54

Task: Quick one: pIC50 for Cn1c(=O)c(C(N)=O)c(N2CCC(c3nnc(-c4cccc(Cl)c4)o3)CC2)c2ccccc21 ?
Result: 6.91

Task: Quick one: pIC50 for Cn1c(=O)c(C#N)c(N2CCC(c3nc4ccc(F)cc4o3)CC2)c2ccccc21 ?
Result: 8.55
